# Test system: Mantle cell lymphoma Mino
# Assay Text: Proliferation inhibition (IC50) in lymphoma cell line Mino, cell viability assay
# Format: cell-based
# Condition Notes: Mino cells, WST reagent, 72 h
Would you mind telling me the reported pIC50 of each entry?
Lab note: report pIC50 as minus log10 of the concentration in molar units, number only.

Please respond with reported pIC50 (system Mantle cell lymphoma Mino) for Nc1cccc2c1C(=O)N(C1CCC(=O)NC1=O)C2=O (centres unmarked) [pomalidomide, reference compound] .
7.32

# return pIC50 for O=C1CCC(N2Cc3c(SCc4ccc(CCNC56CC7CC(CC(C7)C5)C6)cc4)cccc3C2=O)C(=O)N1 (centres unmarked) [SIAIS287128] , test system: Mantle cell lymphoma Mino
9.54

====

Exercise: for every item that follows, state its recorded IC50.
# System: MM.1S cells
# Assay Text: Proliferation inhibition (IC50) in MM.1S cells, cell viability assay
# Condition Notes: Homo sapiens, MM1.S, 72 h, read-out: IC50 (nM), proliferation inhibitory activity of MM.1S cells (half inhibitory concentration)
Report the value in nM with no unit label.

Return IC50 for the following compound: CN(C)CCCCCCCCSc1cccc2c1CN(C1CCC(=O)NC1=O)C2=O (stereo not drawn)
0.32

Report IC50 for O=C1CCC(N2Cc3c(SCCCCCCCSC45CC6CC(CC(C6)C4)C5)cccc3C2=O)C(=O)N1 (stereo not drawn)
0.061

Read off the recorded IC50 for CC1CC(C)CN(CCCCCCCSc2cccc3c2CN(C2CCC(=O)NC2=O)C3=O)C1 (stereo not drawn)
0.047

State, in one line, measured IC50 of O=C1CCC(N2Cc3c(SCCCCCCNC(=O)C45CC6CC(CC(Cl)(C6)C4)C5)cccc3C2=O)C(=O)N1 (stereo not drawn)
0.043

Specify IC50 for O=C1CCC(N2Cc3c(SCc4ccc(CCCN5CCCCC5)cc4)cccc3C2=O)C(=O)N1 (stereo not drawn) and stop.
0.024

Output IC50 of O=C1CCC(N2Cc3c(SCCCCCCCN4CCCCC4)cccc3C2=O)C(=O)N1 (stereo not drawn)
0.06

Give IC50 for the following compound: O=C1CCC(N2Cc3c(SCc4ccc(CCNC5CCCCC5)cc4)cccc3C2=O)C(=O)N1 (stereo not drawn)
0.021

Specify IC50 for O=C1CCC(N2C(=O)c3cccc(SCc4ccc(CCCNC5CCCCC5)cc4)c3C2=O)C(=O)N1 (stereo not drawn) and stop.
0.283

Answer with reported IC50 of CC(C)N(CCCCCCCCSc1cccc2c1CN(C1CCC(=O)NC1=O)C2=O)C(C)C (stereo not drawn)
0.16

Provide IC50 value for the following compound: O=C1CCC(N2Cc3c(SCCCCCCCCCSc4cccc5c4CN(C4CCC(=O)NC4=O)C5=O)cccc3C2=O)C(=O)N1 (stereo not drawn) [SIAIS1220059B]
1.7

Query IC50 for O=C1CCC(N2Cc3c(SCCC45CC6CC(CC(C6)C4)C5)cccc3C2=O)C(=O)N1 (stereo not drawn)
0.42

Name the recorded IC50 of the compound listed here: CC1(C)[C@@H]2CC[C@@]1(C)[C@@H](NCc1ccc(CSc3cccc4c3C(=O)N(C3CCC(=O)NC3=O)C4=O)cc1)C2 (stereo partly drawn)
0.458

Return the recorded IC50 value; entry: O=C1CCC(N2Cc3c(SCc4ccc(CNCC56CC7CC(CC(C7)C5)C6)cc4)cccc3C2=O)C(=O)N1 (stereo not drawn)
0.029

Give me measured IC50, please, for this compound: O=C1CCC(N2Cc3c(SCCCCCCCNC4C5CC6CC(C5)CC4C6)cccc3C2=O)C(=O)N1 (stereo not drawn)
0.01

Answer with the recorded IC50 of O=C1CCC(N2Cc3c(SCCCCCCCNc4ccccc4)cccc3C2=O)C(=O)N1 (stereo not drawn) only.
0.598
